// each record: one item and its pIC50 for bovine cerebral TPK1 (Bos taurus)
pIC50: −log10 of the molar value.
Readout: pIC50

- Compound structure string: "Cn1c(N2CCC=C(c3ccccc3)C2)nc(-c2ccncc2)cc1=O"
  Reading: 8.15
- Compound structure string: "Cn1c(N2CCC=C(c3ccccc3-c3ccccc3)C2)nc(-c2ccncn2)cc1=O"
  Reading: 7.77
- Compound structure string: "Cn1c(N2CCC=C(c3cccs3)C2)nc(-c2ccncn2)cc1=O"
  Reading: 8.05
- Compound structure string: "Cn1c(N2CCC=C(c3ccc(Cl)cc3Cl)C2)nc(-c2ccncn2)cc1=O"
  Reading: 8.25

P. Cn1c(N2CCC=C(Cc3ccccc3)C2)nc(-c2ccncc2)cc1=O
Q. COc1cccc(OC)c1C1=CCCN(c2nc(-c3ccncn3)cc(=O)n2C)C1
R. COc1ccccc1C1=CCCN(c2nc(-c3ccncc3)cc(=O)n2C)C1
S. Cn1c(N2CCC=C(COc3ccc(F)cc3)C2)nc(-c2ccncc2)cc1=O
T. Cn1c(N2CCC=C(c3ccccc3Cl)C2)nc(-c2ccncn2)cc1=O
Please list these compounds in decreasing order of pIC50. A ranking is expressed here by listing the labels in the requested order.
T, Q, R, P, S
(T: 9.42, Q: 8.62, R: 8.30, P: 8.10, S: 7.57)
